compounds and their reported NP/DAPI (%) ave
# System: A/WSN/33 virus
# Procedure text: Immunofluorescence staining of viral NP in influenza A virus-infected MDCK cells
# Condition parameters: WSN, ave summary, 12.50%
State the answer as a number, implicitly in %.

Consider the compound C=C[C@]1(C)CCC(C(C)(C)O)C(c2ccc(O)cc2)C1 (stereo in doubt) [cyclobakuchiol D] and give its measured NP/DAPI (%) ave.
34.4723

Consider the compound C=C[C@]1(C)CCC(C(C)(C)O)C(c2ccc(O)cc2)C1 (stereo in doubt) [cyclobakuchiol C] and give its measured NP/DAPI (%) ave.
26.2263

Consider the compound C=C[C@@](C)(/C=C/c1ccc(O)cc1)CCC=C(C)C [(+)-(S)-bakuchiol, reference compound] and give its measured NP/DAPI (%) ave.
22.092

Consider the compound C=C[C@]1(C)CCC(C(=C)C)C(c2ccc(O)cc2)C1 (stereo in doubt) [cyclobakuchiol A] and give its measured NP/DAPI (%) ave.
27.0591

Consider the compound C=C[C@]1(C)CCC(C(=C)C)C(c2ccc(O)cc2)C1 (stereo in doubt) [cyclobakuchiol B] and give its measured NP/DAPI (%) ave.
30.5618

====

# Test system: A/PR/8/34 virus
# Assay type: cell-based
# Condition parameters: 12.5 μM, 24h WB, average of 3 experiments
molecules and their reported NS1/b-actin ave
Please reply with the number alone, leaving off any unit.

# example entries with known answers
Molecule	System under test	NS1/b-actin ave
C=C[C@]1(C)CCC(C(=C)C)C(c2ccc(O)cc2)C1 (stereo in doubt) [cyclobakuchiol A]	A/PR/8/34 virus	0.4825
C=C[C@]1(C)CCC(C(=C)C)C(c2ccc(O)cc2)C1 (stereo in doubt) [cyclobakuchiol B]	A/PR/8/34 virus	0.5288
C=C[C@]1(C)CCC(C(C)(C)O)C(c2ccc(O)cc2)C1 (stereo in doubt) [cyclobakuchiol C]	A/PR/8/34 virus	0.5534
C=C[C@]1(C)CCC(C(C)(C)O)C(c2ccc(O)cc2)C1 (stereo in doubt) [cyclobakuchiol D]	A/PR/8/34 virus	0.5049

# next molecule below
Which NS1/b-actin ave is reported with A/PR/8/34 virus for this entry: C=C[C@@](C)(/C=C/c1ccc(O)cc1)CCC=C(C)C [(+)-(S)-bakuchiol, reference compound] ?
0.476

====

compounds and their reported NQO1 Canis lupus mRNA, ave
# Tested on: NAD(P)H quinone oxidoreductase 1 (Nqo1)
# Procedure text: RT-qPCR of Nqo1 mRNA in MDCK cells with or without A/PR/8/34 virus
# Assay type: cell-based, canine
# Condition parameters: virus -; 12.5uM; MDCK; relative to virus - DMSO; ave of #1-3 exp
Please reply with the number alone, leaving off any unit.

# example entries with known answers
Compound	NQO1 Canis lupus mRNA, ave
C=C[C@]1(C)CCC(C(C)(C)O)C(c2ccc(O)cc2)C1 (stereo in doubt) [cyclobakuchiol C]	1.195
C=C[C@@](C)(/C=C/c1ccc(O)cc1)CCC=C(C)C [(+)-(S)-bakuchiol, reference compound]	1.91
C=C[C@]1(C)CCC(C(=C)C)C(c2ccc(O)cc2)C1 (stereo in doubt) [cyclobakuchiol A]	1.2966
C=C[C@]1(C)CCC(C(C)(C)O)C(c2ccc(O)cc2)C1 (stereo in doubt) [cyclobakuchiol D]	1.178

# next compound below
Consider the compound C=C[C@]1(C)CCC(C(=C)C)C(c2ccc(O)cc2)C1 (stereo in doubt) [cyclobakuchiol B] and give its measured NQO1 Canis lupus mRNA, ave.
1.333

====

# Tested on: A/WSN/33 virus
# Procedure text: Influenza A viral growth assay (viral titer of culture media)
# Format: cell-based, influenza A H1N1 virus
# Condition parameters: A/WSN/33 (WSN), 12.5uM, 24h, average of #1-3 exp (n=9)
Observed property: viral titer of culture media, ave
Please reply with the number alone, leaving off any unit.

# example entries with known answers
Compound	viral titer of culture media, ave
C=C[C@]1(C)CCC(C(C)(C)O)C(c2ccc(O)cc2)C1 (stereo in doubt) [cyclobakuchiol D]	25855556
C=C[C@@](C)(/C=C/c1ccc(O)cc1)CCC=C(C)C	14411111
C=C[C@]1(C)CC[C@@H](C(=C)C)[C@H](c2ccc(O)cc2)C1	25455556
C=C[C@]1(C)CC[C@@H](C(C)(C)O)[C@H](c2ccc(O)cc2)C1	25855556
C=C[C@]1(C)CC[C@H](C(=C)C)[C@@H](c2ccc(O)cc2)C1	22944444

Consider the compound C=C[C@]1(C)CCC(C(=C)C)C(c2ccc(O)cc2)C1 (stereo in doubt) [cyclobakuchiol B] and give its measured viral titer of culture media, ave.
25455556

Consider the compound "C=C[C@]1(C)CC[C@H](C(C)(C)O)[C@@H](c2ccc(O)cc2)C1" and give its measured viral titer of culture media, ave.
21277778

Consider the compound C=C[C@]1(C)CCC(C(C)(C)O)C(c2ccc(O)cc2)C1 (stereo in doubt) [cyclobakuchiol C] and give its measured viral titer of culture media, ave.
21277778

Consider the compound C=C[C@]1(C)CCC(C(=C)C)C(c2ccc(O)cc2)C1 (stereo in doubt) [cyclobakuchiol A] and give its measured viral titer of culture media, ave.
22944444

====

molecules and their reported pNQO1-ARE-Luc NRF2 reporter assay, ave
# Test system: Nrf2
# Procedure text: Nrf2 reporter assay (dual luciferase system) in MDCK cells
# Type: cell-based, canine
# Condition parameters: 12.5uM; relative to DMSO trans+; ave of #1-3 exp
Please reply with the number alone, leaving off any unit.

Molecule	pNQO1-ARE-Luc NRF2 reporter assay, ave
C=C[C@@](C)(/C=C/c1ccc(O)cc1)CCC=C(C)C [(+)-(S)-bakuchiol, reference compound]	1.302
C=C[C@]1(C)CCC(C(=C)C)C(c2ccc(O)cc2)C1 (stereo in doubt) [cyclobakuchiol B]	1.319
C=C[C@]1(C)CCC(C(C)(C)O)C(c2ccc(O)cc2)C1 (stereo in doubt) [cyclobakuchiol D]	1.2008
C=C[C@]1(C)CCC(C(C)(C)O)C(c2ccc(O)cc2)C1 (stereo in doubt) [cyclobakuchiol C]	1.343

Consider the molecule C=C[C@]1(C)CCC(C(=C)C)C(c2ccc(O)cc2)C1 (stereo in doubt) [cyclobakuchiol A] and give its measured pNQO1-ARE-Luc NRF2 reporter assay, ave.
1.46

====

# Test system: A/PR/8/34 virus
# Procedure text: RT-qPCR of viral mRNAs (NP, NS1, PA, PB1, PB2, M2) in infected MDCK cells
# Format: cell-based, influenza A H1N1 virus
# Condition parameters: MDCK cells, PR8 virus; relative to DMSO (about 1); ave of #1-3 exp (9 values)
Quick rule for you: PR8 PB1 gene expression qPCR, ave under 0.02 gets 1.0, anything else gets 0.0.

Some solved entries appear below for comparison.
Molecule	System under test	Discrete label
C=C[C@]1(C)CCC(C(C)(C)O)C(c2ccc(O)cc2)C1 (stereo in doubt) [cyclobakuchiol D]	A/PR/8/34 virus	0.0
C=C[C@@](C)(/C=C/c1ccc(O)cc1)CCC=C(C)C [(+)-(S)-bakuchiol, reference compound]	A/PR/8/34 virus	1.0
C=C[C@]1(C)CCC(C(C)(C)O)C(c2ccc(O)cc2)C1 (stereo in doubt) [cyclobakuchiol C]	A/PR/8/34 virus	0.0
C=C[C@]1(C)CCC(C(=C)C)C(c2ccc(O)cc2)C1 (stereo in doubt) [cyclobakuchiol B]	A/PR/8/34 virus	1.0

Switching to the query record.
hey, is PR8 PB1 gene expression qPCR, ave for C=C[C@]1(C)CCC(C(=C)C)C(c2ccc(O)cc2)C1 (stereo in doubt) [cyclobakuchiol A] lower than 0.02 or not?
1.0

====

# Tested on: MDCK cells
# Procedure text: MTT assay (cytotoxicity against MDCK cells)
# Format: cell-based, canine
# Condition parameters: 50 (uM), 72h, MDCK cells, summary AVE
Observed property: MTT 72h AVE (DMSO = 100)
Please reply with the number alone, leaving off any unit.

Molecule	Assay result
C=C[C@]1(C)CC[C@H](C(C)(C)O)[C@@H](c2ccc(O)cc2)C1	116.495
C=C[C@]1(C)CC[C@H](C(=C)C)[C@@H](c2ccc(O)cc2)C1	115.79
C=C[C@]1(C)CC[C@@H](C(=C)C)[C@H](c2ccc(O)cc2)C1	92.332
C=C[C@@](C)(/C=C/c1ccc(O)cc1)CCC=C(C)C [(+)-(S)-baku.]	107.359

# next molecule below
Consider the molecule "C=C[C@]1(C)CC[C@@H](C(C)(C)O)[C@H](c2ccc(O)cc2)C1" and give its measured MTT 72h AVE (DMSO = 100).
126.261

====

compounds and their reported MTT 24h, 570-650nm, DMSO as 100, ave
# Tested on: MDCK cells
# Procedure text: MTT assay (cytotoxicity against MDCK cells)
# Type: cell-based, canine
# Condition parameters: MDCK cells, 24h, 12.5uM, mean of 5 wells from 3 experiments
# Method: 1–5 (0.8–100 μM) were prepared in DMSO (100 μM, 1%; 50 μM, 0.5%; 25 μM, 0.25%; 12.5 μM, 0.125%; 6.3 μM, 0.063%; 3.1 μM, 0.031%; 1.6 μM, 0.016%; 0.8 μM, 0.008%) and mixed with infection medium (DMEM supplemented with 1% bovine serum albumin (BSA; Wako), P/S and 4 mM L-glutamine). […] After incubation, cell viability was determined using an MTT cell count kit (Nacalai Tesque) according to the manufacturer’s instructions, as previously described.
Please reply with the number alone, leaving off any unit.

# example entries with known answers
Compound	MTT 24h, 570-650nm, DMSO as 100, ave
C=C[C@]1(C)CC[C@@H](C(C)(C)O)[C@H](c2ccc(O)cc2)C1	97.3142
C=C[C@@](C)(/C=C/c1ccc(O)cc1)CCC=C(C)C [(+)-(S)-baku.]	103.288
C=C[C@]1(C)CC[C@H](C(=C)C)[C@@H](c2ccc(O)cc2)C1	99.9126
C=C[C@]1(C)CC[C@H](C(C)(C)O)[C@@H](c2ccc(O)cc2)C1	98.3774

Which MTT 24h, 570-650nm, DMSO as 100, ave is reported with MDCK cells for this entry: "C=C[C@]1(C)CC[C@@H](C(=C)C)[C@H](c2ccc(O)cc2)C1" ?
102.341
